Hey, just so you know, these numbers are from patent US20250223358A1.

# EC50 listing for each entry below
testedSystem: T1, human CD3 (human, UniProt P07766 23-207; P04234 22-171; P09693 23-182)
T1 construct: whole, on cells; also called hCD3; CD3 on Jurkat cells
T1 sequence (P07766 23-207, chain 1 of 3): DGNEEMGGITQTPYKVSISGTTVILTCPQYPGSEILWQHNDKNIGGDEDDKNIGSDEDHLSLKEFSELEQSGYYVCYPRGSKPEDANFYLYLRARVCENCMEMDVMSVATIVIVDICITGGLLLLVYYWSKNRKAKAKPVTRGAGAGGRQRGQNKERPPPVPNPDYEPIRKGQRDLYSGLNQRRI
T1 sequence (P04234 22-171, chain 2 of 3): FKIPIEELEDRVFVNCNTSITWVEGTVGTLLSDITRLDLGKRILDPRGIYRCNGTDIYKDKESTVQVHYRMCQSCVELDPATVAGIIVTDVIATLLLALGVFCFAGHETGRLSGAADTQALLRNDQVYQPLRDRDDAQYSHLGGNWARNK
T1 sequence (P09693 23-182, chain 3 of 3): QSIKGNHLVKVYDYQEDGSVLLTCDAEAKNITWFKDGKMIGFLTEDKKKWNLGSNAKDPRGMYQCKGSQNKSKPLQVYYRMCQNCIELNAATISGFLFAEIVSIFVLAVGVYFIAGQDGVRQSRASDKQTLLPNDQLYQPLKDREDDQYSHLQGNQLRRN
protocolDetails: FACS on Jurkat cells
Write it as a number; the unit nM goes unstated.

Solved cases below.
>  <binder>
hu40E9-L2H3-D105R.H (antibody, V domains shown) VH: EVQLVQSGAEVKKPGSSVKVSCKASGYTFSSYVIHWVRQAPGQGLEWMGYINPYNDVIKYNEKFKGRVTLTSDKSTSTAYMELSSLRSEDTAVYYCARDSYYSYRGFAYWGQGTLVTVSS VL: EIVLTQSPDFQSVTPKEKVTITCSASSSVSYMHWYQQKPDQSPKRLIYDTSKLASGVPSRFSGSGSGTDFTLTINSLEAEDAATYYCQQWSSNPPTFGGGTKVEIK

>  <measuredNumber>
0.56

$$$$
>  <binder>
hu40E9-L3H2 (antibody, V domains shown, humanized 40-C12-C10-E9) VH: EVQLVQSGAEVKKPGSSVKVSCKASGYTFSSYVIHWVRQAPGQGLEWMGYINPYNDVIKYNEKFKGRVTITADKSTSTAYMELSSLRSEDTAVYYCARDSYYSYDGFAYWGQGTLVTVSS VL: EIVLTQSPDFQSVTPKEKVTITCSASSSVSYMHWYQQKPDQSPKRWIYDTSKLASGVPSRFSGSGSGTDYTLTINSLEAEDAATYYCQQWSSNPPTFGGGTKVEIK

>  <measuredNumber>
0.52

$$$$

Now take the following binder into account.
Input line: Assign EC50 to the following record: hu40E9-L2H3-N93W.L (antibody, V domains shown) VH: EVQLVQSGAEVKKPGSSVKVSCKASGYTFSSYVIHWVRQAPGQGLEWMGYINPYNDVIKYNEKFKGRVTLTSDKSTSTAYMELSSLRSEDTAVYYCARDSYYSYDGFAYWGQGTLVTVSS VL: EIVLTQSPDFQSVTPKEKVTITCSASSSVSYMHWYQQKPDQSPKRLIYDTSKLASGVPSRFSGSGSGTDFTLTINSLEAEDAATYYCQQWSSWPPTFGGGTKVEIK
Output line: 0.51
